Molecular target: Ba/F3-EGFR-WT cells (Homo sapiens, UniProt P00533)
Sequence (P00533 whole entry, looked up, change not shown): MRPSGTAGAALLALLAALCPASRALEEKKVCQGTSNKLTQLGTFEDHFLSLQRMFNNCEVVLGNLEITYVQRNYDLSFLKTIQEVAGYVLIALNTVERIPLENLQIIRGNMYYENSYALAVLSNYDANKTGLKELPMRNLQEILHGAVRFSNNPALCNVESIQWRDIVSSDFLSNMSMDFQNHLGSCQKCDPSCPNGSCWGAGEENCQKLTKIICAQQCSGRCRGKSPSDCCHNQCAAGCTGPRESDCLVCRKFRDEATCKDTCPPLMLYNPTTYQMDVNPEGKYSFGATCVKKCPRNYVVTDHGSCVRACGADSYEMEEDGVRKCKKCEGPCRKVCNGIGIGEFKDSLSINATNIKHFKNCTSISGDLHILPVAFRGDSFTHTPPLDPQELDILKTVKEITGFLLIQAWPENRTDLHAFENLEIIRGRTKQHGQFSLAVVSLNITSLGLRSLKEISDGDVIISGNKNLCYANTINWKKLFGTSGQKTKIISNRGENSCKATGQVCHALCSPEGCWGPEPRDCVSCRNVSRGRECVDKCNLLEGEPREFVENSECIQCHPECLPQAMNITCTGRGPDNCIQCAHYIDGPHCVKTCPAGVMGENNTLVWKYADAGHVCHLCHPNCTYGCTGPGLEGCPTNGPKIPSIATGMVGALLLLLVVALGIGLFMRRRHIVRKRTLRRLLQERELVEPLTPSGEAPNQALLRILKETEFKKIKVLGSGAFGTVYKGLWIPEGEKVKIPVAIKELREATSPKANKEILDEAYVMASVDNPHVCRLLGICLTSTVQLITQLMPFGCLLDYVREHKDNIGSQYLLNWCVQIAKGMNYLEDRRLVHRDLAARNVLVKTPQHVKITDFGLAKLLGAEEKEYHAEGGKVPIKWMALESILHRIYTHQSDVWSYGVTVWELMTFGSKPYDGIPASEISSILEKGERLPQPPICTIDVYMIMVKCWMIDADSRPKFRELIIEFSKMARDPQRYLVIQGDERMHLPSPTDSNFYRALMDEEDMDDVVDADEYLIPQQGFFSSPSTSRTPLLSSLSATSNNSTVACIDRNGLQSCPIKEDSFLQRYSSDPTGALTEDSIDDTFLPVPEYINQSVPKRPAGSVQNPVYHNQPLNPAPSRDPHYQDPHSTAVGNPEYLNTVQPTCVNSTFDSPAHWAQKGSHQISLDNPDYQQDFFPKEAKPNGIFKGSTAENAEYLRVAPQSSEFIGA
Assay: Ba/F3 cell survival assay, wild type EGFR
Type: cell-based
Conditions: Cell Titer-Glo, 48 h, with 10 ng/mL EGF; Table 4; read-out: BA/F3 (wild type) IC50
hey, just use satisfied if measured GI50 is less than 700 nM, otherwise not satisfied

Report whether reported GI50 is lower than 700 nM (strictly) for COc1c(F)cccc1Nc1c(-c2ccncc2OC[C@@H]2CCCO2)[nH]c2c1C(=O)NC(C)C2 (single isomer, unassigned) [Example 10]
satisfied

Report whether reported GI50 is lower than 700 nM (strictly) for COc1c(Cl)cccc1Nc1c(-c2ccncc2OCC2OCCCC2(F)F)[nH]c2c1C(=O)N[C@H](C)C2 (mixture of isomers) [Example 74]
satisfied

Report whether reported GI50 is lower than 700 nM (strictly) for COc1c(Cl)cccc1Nc1c(-c2ccncc2OCC2OCCC2(F)F)[nH]c2c1C(=O)N[C@H](C)C2 (single isomer, unassigned) [Example 73]
satisfied

Report whether reported GI50 is lower than 700 nM (strictly) for COc1c(Cl)cccc1Nc1c(-c2ccncc2OC[C@@H]2CCCO2)[nH]c2c1C(=O)NCC2CCC(F)(F)F (single isomer, unassigned) [Example 99]
not satisfied

Report whether reported GI50 is lower than 700 nM (strictly) for Cc1c(Cl)cccc1Nc1c(-c2ccncc2OCC2COC(C)(C)CO2)[nH]c2c1C(=O)NCC2C (stereo not shown)
not satisfied

Report whether reported GI50 is lower than 700 nM (strictly) for COc1c(Cl)cccc1Nc1c(-c2ccncc2OC[C@@H]2CCCO2)[nH]c2c1C(=O)NC1(CC1)C2
not satisfied

Report whether reported GI50 is lower than 700 nM (strictly) for COc1c(Cl)cccc1Nc1c(-c2ccncc2OC[C@@H]2CCCO2)[nH]c2c1C(=O)NCC2C (single isomer, unassigned) [Example 32]
not satisfied

Report whether reported GI50 is lower than 700 nM (strictly) for COCC(C)Oc1cnccc1-c1[nH]c2c(c1Nc1cccc(Cl)c1OC)C(=O)N[C@@H]1CCC[C@H]21 (stereo partly shown) [Example 49]
satisfied

Report whether reported GI50 is lower than 700 nM (strictly) for COc1c(Cl)cccc1Nc1c(-c2ccncc2OCC2CCCCO2)[nH]c2c1C(=O)NCC2C (single isomer, unassigned) [Example 46]
not satisfied

Report whether reported GI50 is lower than 700 nM (strictly) for COc1c(Cl)cccc1Nc1c(-c2ccncc2OCCC2CCCCO2)[nH]c2c1C(=O)NC1(CCC1)C2 (stereo not shown)
not satisfied

Report whether reported GI50 is lower than 700 nM (strictly) for COc1c(Cl)cccc1Nc1c(-c2ccncc2OCC2COC(C)(C)CO2)[nH]c2c1C(=O)NCC2C (single isomer, unassigned) [Example 97]
not satisfied

Report whether reported GI50 is lower than 700 nM (strictly) for COc1c(Cl)cccc1Nc1c(-c2ccncc2OC[C@@H]2CCCO2)[nH]c2c1C(=O)NC1CCCC21 (stereo in doubt)
not satisfied

Report whether reported GI50 is lower than 700 nM (strictly) for COc1c(Cl)cccc1Nc1c(-c2ccncc2OCC2COCCO2)[nH]c2c1C(=O)NC1(CCC1)C2 (single isomer, unassigned) [Example 125]
not satisfied
